Give Ki for every item shown.
- subjectOfTest: human GABA A receptor α5β3γ2 (Homo sapiens (Human), UniProt P18507+P31644)
- procedureSummary: [3H]flumazenil competition binding assay, human GABA A α5β3γ2 receptors expressed in HEK293 cells
- details: human receptor; displacement of [3H]flumazenil (0.5 nM); means of two determinations; read-out: hKi GABAAa5
Numbers only, in nM.

- Cc1onc(-c2ccc(Cl)cc2)c1COc1ccc(C(=O)NCC2CC2)cn1: 1.3

Go through the list and state Ki for each entry.
1. CC(=O)NCCNC(=O)c1ccc(OCc2c(-c3ccccc3)noc2C)nc1
2. Cc1onc(-c2ccccc2)c1COc1ccc(C(=O)N2CCC(O)CC2)cn1
3. COC(=O)c1ccc(OCc2c(-c3cccc(Cl)c3)noc2C)nc1
4. O=C(NCCCO)c1ccc(OCc2conc2-c2ccc(Cl)cc2)nc1

Response:
4
73.4
27.4
10.3

Lab note: each molecule below needs its Ki filled in.
1. Cc1onc(-c2ccncc2)c1COc1ccc(C(=O)NC2CC2)cn1
2. Cc1onc(-c2cccc(Cl)c2)c1COc1ccc(C(=O)NC2CCOCC2)cn1
3. Cc1onc(-c2ccc(Cl)cn2)c1COc1ccc(C(=O)NCC2CC2)cn1

Response:
[7.1, 3.9, 0.3]

###

- subjectOfTest: human GABA A receptor α5β3γ2 (Homo sapiens (Human), UniProt P18507+P31644)
- procedureSummary: [3H]flumazenil competition binding assay, human GABA A α5β3γ2 receptors expressed in HEK293 cells
- details: human receptor; displacement of [3H]flumazenil (0.5 nM); means of two determinations; read-out: hKi GABAAa5
recordedMetric: pKi
One number for each entry, as −log10 of the molar value.

Each of the following entries comes with a recorded value; kindly state pKi for each.
1. Cc1onc(-c2ccccn2)c1COc1ccc(C(=O)NCC2CC2)cn1 [Example 277]
2. CCNC(=O)c1ccc(OCc2c(-c3ccccc3)noc2C(F)(F)F)nc1 [Example 130]
3. CCN1CCC(NC(=O)c2ccc(OCc3c(-c4ccccc4)noc3C)nc2)CC1 [Example 35]
4. Cc1onc(-c2ccc(F)cn2)c1COc1ccc(C(=O)O)cn1 [Example 287]
5. Cc1nc(OCc2c(-c3ccccc3)noc2C)ccc1C(=O)NC1CCOCC1 [Example 60]

Response:
1: 8.82; 2: 7.51; 3: 8.03; 4: 7.72; 5: 7.41

# batch size: 2; output pKi per entry
1. Cc1onc(-c2ccccc2)c1COc1ccc(C(=O)Nc2ccc(F)cc2)cn1 [Example 49]
2. O=C(NC1CCOCC1)c1ccc(OCc2conc2-c2ccc(F)cn2)nc1 [Example 365]

Response:
[7.92, 8.10]

For every item in the list below, what is its measured pKi?
1. Cc1onc(-c2ccc(F)cc2)c1CNc1ccc(C(=O)NC(C)C)cn1 [Example 175]
2. O=C(NC1CC1)c1ccc(OCc2conc2-c2ccc(F)cn2)nc1 [Example 367]
3. Cc1onc(-c2ccncn2)c1COc1ccc(C(=O)N2CCSCC2)cn1 [Example 319]

Response:
8.43
7.87
7.69

###

- subjectOfTest: human GABA A receptor α5β3γ2 (Homo sapiens (Human), UniProt P18507+P31644)
- procedureSummary: [3H]flumazenil competition binding assay, human GABA A α5β3γ2 receptors expressed in HEK293 cells
- details: human receptor; displacement of [3H]flumazenil (0.5 nM); means of two determinations; read-out: hKi GABAAa5
Output satisfied for records whose Ki is lower than 10 nM, not satisfied for records at or above 10 nM.

Check out these entries, answers already filled in.
• Cc1onc(-c2ccc(Cl)cc2)c1COc1ccc(C(=O)N2CCSCC2)cn1 = satisfied
• Cc1onc(-c2ccccc2)c1COc1cc(C(=O)NC2CCOCC2)ccn1 = not satisfied
• Cc1onc(-c2ccc(Cl)cc2)c1COc1ccc(C(=O)N[C@@H]2CCC[C@H]2O)cn1 (single isomer, unassigned) = satisfied
• CC(C)(CO)CNC(=O)c1ccc(OCc2conc2-c2ccc(Cl)cc2)nc1 = not satisfied
• COC(=O)c1ccc(OCc2c(-c3ccccc3)noc2C)nc1 = not satisfied
• Cc1onc(-c2ccccc2)c1COc1ccc(C(=O)N[C@H]2CCCC[C@@H]2O)cn1 = satisfied
• Cc1onc(-c2ccccc2)c1COc1ccc(C(=O)NC2CCS(=O)(=O)C2)cn1 (centres unmarked) = satisfied

Prompt: Please check: Ki for Cc1onc(-c2ccccc2)c1COc1ccc(C(=O)NC2CCCN(C(=O)OC(C)(C)C)C2)cn1 (centres unmarked) , strictly under 10 nM or not?
Response: not satisfied

###

- subjectOfTest: human GABA A receptor α5β3γ2 (Homo sapiens (Human), UniProt P18507+P31644)
- procedureSummary: [3H]flumazenil competition binding assay, human GABA A α5β3γ2 receptors expressed in HEK293 cells
- details: human receptor; displacement of [3H]flumazenil (0.5 nM); means of two determinations; read-out: hKi GABAAa5
Returns the class for an entry based on its Ki. Class ranges: Low = under 3 nM, Medium = from 3 nM up to 20 nM, High = 20 nM and over

Example results:
- Cc1onc(-c2ccc(Cl)cc2)c1COc1ccc(C(=O)NC2CC2)cn1 [Example 120]: Low
- O=C(NC1CC1)c1ccc(OCc2c(-c3ccc(F)cc3)noc2C(F)(F)F)nc1 [Example 143]: High
- Cc1onc(-c2ccccc2)c1COc1ccc(C(=O)NCCNC(=O)OC(C)(C)C)cn1 [Example 217]: Medium

Prompt: Form field 'band' for O=C(N[C@@H]1CCC[C@H]1O)c1ccc(OCc2conc2-c2ccc(F)cc2)nc1 (single isomer, unassigned) [Example 332]
Response: High

Prompt: Which category fits this record: Cc1onc(-c2ccccc2)c1COc1ccc(C(=O)NC2CC(OCc3ccccc3)C2)cn1 (centres unmarked) [Example 230]
Response: Low

Prompt: Tag the class for Cc1onc(-c2ccncn2)c1COc1ccc(C(=O)NC2CC2)cn1 [Example 314]
Response: Medium

Prompt: The entry to classify is CC[C@@H](CO)NC(=O)c1ccc(OCc2c(-c3ccccc3)noc2C)nc1 [Example 208] ; which class holds it?
Response: Low

Prompt: Place this compound in its band: Cc1onc(-c2ccc(F)c(F)c2)c1COc1ccc(C(=O)NCC(F)(F)F)cn1 [Example 125]
Response: Low

###

- subjectOfTest: human GABA A receptor α5β3γ2 (Homo sapiens (Human), UniProt P18507+P31644)
- procedureSummary: [3H]flumazenil competition binding assay, human GABA A α5β3γ2 receptors expressed in HEK293 cells
- details: human receptor; displacement of [3H]flumazenil (0.5 nM); means of two determinations; read-out: hKi GABAAa5
One threshold, 9 nM, splits the recorded Ki values: lower ones are condition met, equal or higher ones are condition not met.

Worked cases, answers included:
• Cc1ccc(-c2noc(C)c2COc2ccc(C(=O)NC(C)C)cn2)c(F)c1 = condition met
• Cc1onc(-c2ccc(Cl)cc2)c1COc1ccc(C(=O)N[C@H]2CCC[C@@H]2O)cn1 (single isomer, unassigned) = condition met
• Cc1onc(-c2ccccc2)c1COc1ccc(C(=O)OC(C)C)cn1 = condition met
• CCNC(=O)c1ccc(OCc2c(-c3ccccc3)noc2C)nc1 = condition met
• Cc1onc(-c2ccccc2)c1COc1ncc(C(=O)NC2CCOCC2)cc1Br = condition not met
• CNC(=O)c1ccc(OCc2c(-c3ccccn3)noc2C)nc1 = condition met

Prompt: Find out if reported Ki for `COC(=O)c1ccc(OCc2c(-c3ccc(F)cc3)noc2C)nc1` is less than 9 nM
Response: condition not met

Prompt: hey, is Ki for `Cc1onc(-c2ccccc2)c1COc1ccc(C(=O)NC(C)(C)C)cn1` lower than 9 nM or not?
Response: condition not met

###

- subjectOfTest: human GABA A receptor α5β3γ2 (Homo sapiens (Human), UniProt P18507+P31644)
- procedureSummary: [3H]flumazenil competition binding assay, human GABA A α5β3γ2 receptors expressed in HEK293 cells
- details: human receptor; displacement of [3H]flumazenil (0.5 nM); means of two determinations; read-out: hKi GABAAa5
Field: label. Allowed values: Fulfilled (Ki < 10 nM) or Not fulfilled (Ki >= 10 nM).

# count of solved cases: 4
- O=C(NC1CCOCC1)c1ccc(OCc2conc2-c2ccccc2)nc1 [Example 322]: Not fulfilled
- Cc1onc(-c2ccccc2)c1COc1ccc(C(=O)N[C@H]2CCCC[C@H]2O)cn1 (racemic) [Example 199]: Fulfilled
- Cc1onc(-c2cccc(F)c2)c1COc1ccc(C(=O)NC(C)C)cn1 [Example 91]: Fulfilled
- Cc1cccc(-c2noc(C)c2COc2ccc(C(=O)NC3CCOCC3)cn2)c1 [Example 249]: Fulfilled

Prompt: Report whether reported Ki is lower than 10 nM (strictly) for CC(C)NC(=O)c1ccc(OCc2conc2-c2ccc(F)cc2)nc1 [Example 323]
Response: Fulfilled

Prompt: Confirm or reject: Ki of O=C(NC1CCS(=O)(=O)C1)c1ccc(OCc2conc2-c2ccc(F)cc2)nc1 (stereo not drawn) [Example 340] lies strictly below 10 nM
Response: Not fulfilled

Prompt: Consider the compound Cc1onc(-c2ccccc2)c1COc1ccc(C(=O)NC[C@H]2CC(=O)NO2)cn1 [Example 18] . Is its Ki strictly less than 10 nM?
Response: Not fulfilled

Prompt: Does Cc1onc(-c2ccccc2)c1COc1ccc(C(=O)NC2CCC2)cn1 [Example 28] have Ki strictly under 10 nM?
Response: Fulfilled

Prompt: Decide: Ki of O=C(NC1CC1)c1ccc(OCc2conc2-c2ccccn2)nc1 [Example 360] strictly below 10 nM?
Response: Not fulfilled

Prompt: Lab note: Ki threshold 10 nM. Does this compound come in strictly under it? Cc1onc(-c2ccccc2)c1COc1ccc(C(=O)N[C@@H]2CCCC[C@H]2O)cn1 [Example 197]
Response: Not fulfilled

Prompt: Please indicate whether the reported Ki of Cc1onc(-c2ccccc2)c1COc1ccc(C(=O)N2CCS(=O)(=O)CC2)cn1 [Example 55] is strictly below 10 nM.
Response: Not fulfilled

Prompt: Quick check: Ki of CSc1ccc(OCc2c(-c3ccccc3)noc2C)nc1 [Example 247] under 10 nM?
Response: Not fulfilled

Prompt: Consider Cc1onc(-c2ccc(F)c(F)c2)c1COc1ccc(C(=O)NC(C)(C)CO)cn1 [Example 267] . Does its Ki lie strictly below 10 nM?
Response: Fulfilled

Prompt: Is Ki strictly under 10 nM for the entry Cc1onc(-c2ccncn2)c1COc1ccc(C(=O)N2CCOCC2)cn1 [Example 316] ?
Response: Not fulfilled

Prompt: Dear reviewer, please state whether CC(C)(CO)NC(=O)c1ccc(OCc2conc2-c2ccc(Cl)cc2)nc1 [Example 349] has Ki strictly beneath 10 nM.
Response: Not fulfilled

Prompt: Problem: For the compound Cc1onc(-c2ccccc2)c1COc1ccc(C(=O)N[C@H]2CCCC[C@H]2O)cn1 (single isomer, unassigned) [Example 204] , is Ki under 10 nM?
Response: Fulfilled

Prompt: Could you please tell me whether Ki recorded for Cc1onc(-c2ccncc2)c1COc1ccc(C(=O)NCC(F)(F)F)cn1 [Example 146] is less than 10 nM?
Response: Fulfilled

Prompt: Does the reported Ki of CC(C)NC(=O)c1ccc(OCc2conc2-c2ccccn2)nc1 [Example 359] stay below 10 nM?
Response: Not fulfilled
